# Tested on: Vero E6 infected with SARS-CoV-2
# TEST DETAILS: inhibition of SARS-CoV-2 cytopathic effect; higher = more antiviral protection, active = above 15
# CONDITION NOTES: 10000 nM; 48 h
MEASURE: inhibition of SARS-CoV-2 cytopathic effect

{"COMPOUND": "CC(C)[C@H]1CC[C@H](C(=O)N[C@H](Cc2ccccc2)C(=O)O)CC1 [nateglinide]", "OBSERVED VALUE": "1.33% (inactive)"}
{"COMPOUND": "Cc1cccc(C)c1NC(=O)CN1CCN(CCCC(c2ccc(F)cc2)c2ccc(F)cc2)CC1", "OBSERVED VALUE": "-10.2% (inactive)"}
{"COMPOUND": "CC(C(=O)O)c1ccc2c(c1)CC(=O)c1ccccc1S2 (stereo unspecified)", "OBSERVED VALUE": "1.17% (inactive)"}
{"COMPOUND": "Cc1cc(NS(=O)(=O)c2ccc(N)cc2)no1", "OBSERVED VALUE": "0.81% (inactive)"}
{"COMPOUND": "COc1cc2/c(=N/c3ccc(Br)cc3F)nc[nH]c2cc1OCC1CCN(C)CC1", "OBSERVED VALUE": "-3.93% (inactive)"}
{"COMPOUND": "Cc1cc(CN)cc(C)c1NC(=O)c1ccc(-c2cc(Cl)ccc2Cl)o1", "OBSERVED VALUE": "66.2% (active)"}
{"COMPOUND": "CN1CCN(c2nc(C3=C(c4c[nH]c5ccccc45)C(=O)NC3=O)c3ccccc3n2)CC1", "OBSERVED VALUE": "4.89% (inactive)"}
{"COMPOUND": "CC(=O)OCC1=C(C(=O)O)N2C(=O)[C@@H](N)[C@H]2SC1", "OBSERVED VALUE": "3.59% (inactive)"}
{"COMPOUND": "COc1cc(N2CCC(O)CC2)ccc1Nc1cc(Nc2ccccc2S(=O)(=O)C(C)C)c2cc[nH]c2n1", "OBSERVED VALUE": "-7.51% (inactive)"}
{"COMPOUND": "C=CC(=O)Nc1cccc(Nc2nc(Nc3ccc(OCCOC)cc3)ncc2F)c1", "OBSERVED VALUE": "-11.3% (inactive)"}
{"COMPOUND": "CN1C(=O)N[C@H](Cc2c[nH]c3c(Cl)cccc23)C1=O", "OBSERVED VALUE": "-5.96% (inactive)"}

----------
# Test system: Vero E6 infected with SARS-CoV-2
# TEST DETAILS: inhibition of SARS-CoV-2 cytopathic effect; higher = more antiviral protection, active = above 15
# CONDITION NOTES: 10000 nM; 48 h
# inhibition of SARS-CoV-2 cytopathic effect listing for each entry below
MEASURE: inhibition of SARS-CoV-2 cytopathic effect (%)

{"MOLECULE": "COc1ccc(NS(=O)(=O)c2ccc(/N=N/c3ccc(O)c(C(=O)O)c3)cc2)nn1 [salazodine]", "OBSERVED VALUE": -1.01}
{"MOLECULE": "CN(CCc1ccc(Cl)c(Cl)c1)CCN1CCCC1", "OBSERVED VALUE": -1.25}
{"MOLECULE": "CCC(=O)O[C@@H]1CC(=O)O[C@H](C)C/C=C/C=C/[C@H](O)[C@H](C)C[C@H](CC=O)[C@H](O[C@@H]2O[C@H](C)[C@@H](O[C@H]3C[C@@](C)(O)[C@@H](OC(=O)CC)[C@H](C)O3)[C@H](N(C)C)[C@H]2O)[C@H]1OC [midecamycin]", "OBSERVED VALUE": -0.33}
{"MOLECULE": "CC(=O)OCC1=C(C(=O)O)N2C(=O)[C@@H](NC(=O)CCCC(N)C(=O)O)C2SC1 (stereo partly drawn) [cephalosporin-c-zn]", "OBSERVED VALUE": 1.87}
{"MOLECULE": "CCN(CC)CCOc1ccc(C(O)(Cc2ccc(Cl)cc2)c2ccc(C)cc2)cc1 (stereo not drawn) [Triparanol]", "OBSERVED VALUE": 51.4}
{"MOLECULE": "N[C@@H]1c2cccnc2[C@H](OC(=O)N2CCC(n3c(=O)[nH]c4ncccc43)CC2)CC[C@H]1c1cccc(F)c1F [rimegepant]", "OBSERVED VALUE": 0.55}
{"MOLECULE": "CC(C)(C)NCC(O)CSc1nc(-c2ccc(C(N)=O)s2)cs1 (stereo not drawn) [arotinolol]", "OBSERVED VALUE": -6.09}
{"MOLECULE": "CCn1c2ccccc2c2cc(CNCc3ccccc3OC)ccc21", "OBSERVED VALUE": -6.1}
{"MOLECULE": "Clc1cccc(C(c2ccc3[nH]cnc3c2)n2ccnc2)c1 (stereo not drawn) [liarozole]", "OBSERVED VALUE": 1.64}
{"MOLECULE": "Cc1cc(O)cc(C)c1Cl [chloroxylenol]", "OBSERVED VALUE": 0.1}
{"MOLECULE": "CN(C)[C@@H](CCOc1cccc2ccccc12)c1ccccc1 [dapoxetine]", "OBSERVED VALUE": 1.17}
{"MOLECULE": "COc1ccc(C(Cl)=C(c2ccc(OC)cc2)c2ccc(OC)cc2)cc1 [chlorotrianisene]", "OBSERVED VALUE": 5.78}
{"MOLECULE": "C[C@]12CC[C@@H]3c4ccc(O)cc4CC[C@H]3[C@@H]1CC[C@@H]2OC(=O)CCC1CCCC1 [estradiol-cypionate]", "OBSERVED VALUE": 1.69}
{"MOLECULE": "O=C(Nc1ccc(CN2CCOCC2)cc1)c1ccc(-c2cccc(Cl)c2)o1", "OBSERVED VALUE": -0.79}
{"MOLECULE": "CC[C@H](c1ccc(O)cc1)[C@@H](CC)c1ccc(O)cc1 [hexestrol]", "OBSERVED VALUE": 2.9}
{"MOLECULE": "CC(=O)NC1CCSC1=O (stereo not drawn) [citiolone]", "OBSERVED VALUE": 2.58}
{"MOLECULE": "C#CCN(C)Cc1ccccc1 [pargyline]", "OBSERVED VALUE": 2.9}
{"MOLECULE": "O=C(O)C[C@H](O)C[C@H](O)/C=C/c1c(C2CC2)nc2ccccc2c1-c1ccc(F)cc1 [pitavastatin]", "OBSERVED VALUE": 6.01}
{"MOLECULE": "CC[C@@H](c1ccc(F)c(F)c1)n1c(C(=O)OC)c(-c2ccno2)[nH]c1=S", "OBSERVED VALUE": -0.12}
{"MOLECULE": "O=C(O)C(O)C(O)C(=O)O (stereo not drawn) [tartaric-acid]", "OBSERVED VALUE": -0.64}
{"MOLECULE": "O=Nc1c(-c2c(O)[nH]c3ccccc23)[nH]c2ccccc12 [indirubin-3-monoxime]", "OBSERVED VALUE": 3.83}
{"MOLECULE": "NC(=O)OCCCc1ccccc1 [phenprobamate]", "OBSERVED VALUE": -2.7}
{"MOLECULE": "Clc1ccccc1CNC[C@H]1CC[C@H](CNCc2ccccc2Cl)CC1", "OBSERVED VALUE": 16.4}
{"MOLECULE": "CCCCCCCCCCCCCCCC(=O)OC[C@@H](NC(=O)C(Cl)Cl)[C@H](O)c1ccc([N+](=O)[O-])cc1 [chloramphenicol-palmitate]", "OBSERVED VALUE": 0.57}
{"MOLECULE": "C[C@H](Nc1cc(-c2cnn(C)c2)cc(Nc2cnccn2)n1)c1ccc(F)cc1", "OBSERVED VALUE": -8.8}
{"MOLECULE": "O=C1NC(=O)c2cc(Nc3ccccc3)c(Nc3ccccc3)cc21", "OBSERVED VALUE": 1.85}
{"MOLECULE": "COCC(=O)Nc1c(I)c(C(=O)NCC(O)CO)c(I)c(C(=O)N(C)CC(O)CO)c1I (stereo not drawn) [iopromide]", "OBSERVED VALUE": 0.66}
{"MOLECULE": "O=S1(=O)N[C@H]2CCCN2c2ccccc21", "OBSERVED VALUE": -12.2}
{"MOLECULE": "O=C1[O][SbH]23[O]C(=O)C([O]2)C2[O][SbH]4([O]C(=O)C([O]4)C1[O]3)[O]C2=O [antimonyl]", "OBSERVED VALUE": -10.4}
{"MOLECULE": "CC(C)[C@H](O)C(=O)N[C@@H](C)C(=O)N[C@@H]1C(=O)N(C)CCc2ccccc21 [semagacestat]", "OBSERVED VALUE": -3.08}
{"MOLECULE": "CC1(C)S[C@@H]2[C@H](NC(=O)[C@H](C(=O)O)c3ccsc3)C(=O)N2[C@H]1C(=O)O [ticarcillin]", "OBSERVED VALUE": -2.66}
{"MOLECULE": "N=C(N)NCCC[C@H](N)C(=O)O [L-arginine]", "OBSERVED VALUE": 1.83}
{"MOLECULE": "Cc1cc(O)c(C(=O)N[C@@H](C(=O)N[C@@H]2C(=O)N3C(C(=O)O)=C(CSc4nnnn4C)CS[C@H]23)c2ccc(O)cc2)cn1 [cefpiramide]", "OBSERVED VALUE": 3.6}

FYI, the data here is from the supplement of paper PMC13380429.
